Experimental system: GRK2 (Homo sapiens)
Construct: purchased SignalChem A14-10G
Sequence (P25098 whole entry): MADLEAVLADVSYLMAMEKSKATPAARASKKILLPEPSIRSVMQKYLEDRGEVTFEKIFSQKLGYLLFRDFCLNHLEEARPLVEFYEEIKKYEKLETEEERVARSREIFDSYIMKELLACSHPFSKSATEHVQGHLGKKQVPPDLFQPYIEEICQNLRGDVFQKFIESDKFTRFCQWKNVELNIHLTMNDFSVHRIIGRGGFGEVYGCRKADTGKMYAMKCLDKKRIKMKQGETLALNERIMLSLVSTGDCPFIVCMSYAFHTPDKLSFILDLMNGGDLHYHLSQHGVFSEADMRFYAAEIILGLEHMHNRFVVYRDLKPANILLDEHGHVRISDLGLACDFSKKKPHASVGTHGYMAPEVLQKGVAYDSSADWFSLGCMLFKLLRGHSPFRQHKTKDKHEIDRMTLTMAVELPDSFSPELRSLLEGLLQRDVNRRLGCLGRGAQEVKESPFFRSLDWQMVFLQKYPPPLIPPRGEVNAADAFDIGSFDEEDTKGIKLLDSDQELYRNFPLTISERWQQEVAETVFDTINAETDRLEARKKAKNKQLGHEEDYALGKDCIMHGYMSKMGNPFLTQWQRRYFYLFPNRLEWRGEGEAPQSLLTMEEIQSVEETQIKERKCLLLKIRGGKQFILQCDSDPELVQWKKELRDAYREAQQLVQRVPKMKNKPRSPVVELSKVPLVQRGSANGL
Assay details: ADPGlo GRK2 Inhibition Assay (Example 8)
Type: biochemical
Condition description: ADPGlo GRK2 enzyme assay; read-out: A: Enzymatic GRK2: IC50 (nM) (Example 8)
# note: exactly 70 nM is not below, so it is Not fulfilled; use Fulfilled for IC50 strictly under it

[
  {
    "Molecule": "Cc1cccnc1[C@H](C)NC(=O)c1cccc(NCc2nnc(-c3ccncn3)n2C)c1",
    "Experimental system": "GRK2 (Homo sapiens)",
    "Class label": "Fulfilled"
  },
  {
    "Molecule": "Cc1ncncc1[C@@H](C)NC(=O)c1cccc(NCc2nnc(-c3ccncn3)n2C)c1",
    "Experimental system": "GRK2 (Homo sapiens)",
    "Class label": "Fulfilled"
  },
  {
    "Molecule": "Cn1c(CNc2cccc(C(=O)NCc3cccnc3-n3cccn3)c2)nnc1-c1ccncn1",
    "Experimental system": "GRK2 (Homo sapiens)",
    "Class label": "Not fulfilled"
  },
  {
    "Molecule": "Cn1c(CNc2cccc(C(=O)NC3CCCc4c3ccc(=O)n4C)c2)nnc1-c1ccncn1 (centres unmarked)",
    "Experimental system": "GRK2 (Homo sapiens)",
    "Class label": "Not fulfilled"
  },
  {
    "Molecule": "Cn1c(CNc2cccc(C(=O)NCc3c(F)cccc3NS(C)(=O)=O)c2)nnc1-c1ccncn1",
    "Experimental system": "GRK2 (Homo sapiens)",
    "Class label": "Fulfilled"
  },
  {
    "Molecule": "Cn1c(CNc2cccc(C(=O)NC(CO)c3ccccn3)c2)nnc1-c1ccncn1 (centres unmarked)",
    "Experimental system": "GRK2 (Homo sapiens)",
    "Class label": "Not fulfilled"
  },
  {
    "Molecule": "COc1ccc(CNC(=O)c2cccc(NCc3nnc(-c4ccncn4)n3C)c2)c(C)n1",
    "Experimental system": "GRK2 (Homo sapiens)",
    "Class label": "Fulfilled"
  },
  {
    "Molecule": "CCc1cnccc1CNC(=O)c1cccc(NCc2nnc(-c3ccncn3)n2[C@H]2CCC[C@H](NC)C2)c1",
    "Experimental system": "GRK2 (Homo sapiens)",
    "Class label": "Not fulfilled"
  },
  {
    "Molecule": "Cc1nccn1-c1ncccc1CNC(=O)c1cccc(NCc2nnc(-c3ccncn3)n2C)c1",
    "Experimental system": "GRK2 (Homo sapiens)",
    "Class label": "Fulfilled"
  },
  {
    "Molecule": "CN1Cc2ccccc2C(NC(=O)c2cccc(NCc3nnc(-c4ccncn4)n3C)c2)C1=O (centres unmarked)",
    "Experimental system": "GRK2 (Homo sapiens)",
    "Class label": "Fulfilled"
  },
  {
    "Molecule": "O=C(NCc1cnc2ccccn12)c1cccc(NCc2nnc(-c3ccncc3)n2CCO)c1",
    "Experimental system": "GRK2 (Homo sapiens)",
    "Class label": "Fulfilled"
  },
  {
    "Molecule": "CCOc1ccc(CNC(=O)c2cccc(NCc3nnc(-c4ccncn4)n3C)c2)cc1",
    "Experimental system": "GRK2 (Homo sapiens)",
    "Class label": "Fulfilled"
  },
  {
    "Molecule": "COc1ccc(CNC(=O)c2cccc(NCc3nnc(-c4ccncn4)n3C)c2)cc1",
    "Experimental system": "GRK2 (Homo sapiens)",
    "Class label": "Not fulfilled"
  },
  {
    "Molecule": "Cc1ncc2c(n1)CCCC2NC(=O)c1cccc(NCc2nnc(-c3ccncn3)n2C)c1 (centres unmarked)",
    "Experimental system": "GRK2 (Homo sapiens)",
    "Class label": "Not fulfilled"
  },
  {
    "Molecule": "Cn1c(CNc2cccc(C(=O)NC3CC(O)c4ccccc43)c2)nnc1-c1ccncn1 (centres unmarked)",
    "Experimental system": "GRK2 (Homo sapiens)",
    "Class label": "Fulfilled"
  },
  {
    "Molecule": "Cn1c(CNc2cccc(C(=O)NCc3cccc4c3CCNC4)c2)nnc1-c1ccncn1",
    "Experimental system": "GRK2 (Homo sapiens)",
    "Class label": "Fulfilled"
  },
  {
    "Molecule": "CN(C)S(=O)(=O)c1cccc(F)c1CNC(=O)c1cccc(NCc2nnc(-c3ccncn3)n2C)c1",
    "Experimental system": "GRK2 (Homo sapiens)",
    "Class label": "Fulfilled"
  },
  {
    "Molecule": "Cn1c(CNc2cccc(C(=O)NC3CNCCc4ccccc43)c2)nnc1-c1ccncn1 (centres unmarked)",
    "Experimental system": "GRK2 (Homo sapiens)",
    "Class label": "Not fulfilled"
  },
  {
    "Molecule": "COc1cccc([C@H](C)NC(=O)c2ccnc(NCc3nnc(-c4ccncn4)n3C)c2)c1",
    "Experimental system": "GRK2 (Homo sapiens)",
    "Class label": "Not fulfilled"
  },
  {
    "Molecule": "CCCCCOc1ccc2c(c1)[C@H](NC(=O)c1cccc(NCc3nnc(-c4ccncn4)n3C)c1)CO2",
    "Experimental system": "GRK2 (Homo sapiens)",
    "Class label": "Not fulfilled"
  },
  {
    "Molecule": "COc1cccc([C@@H](C)NC(=O)c2cccc(NCc3nnc(-c4ccncc4)n3CCO)c2)c1",
    "Experimental system": "GRK2 (Homo sapiens)",
    "Class label": "Not fulfilled"
  },
  {
    "Molecule": "Cc1ccccc1[C@@H](C#N)NC(=O)c1cccc(NCc2nnc(-c3ccncn3)n2C)c1",
    "Experimental system": "GRK2 (Homo sapiens)",
    "Class label": "Fulfilled"
  },
  {
    "Molecule": "Cc1nccnc1C(C)NC(=O)c1cccc(NCc2nnc(-c3ccncn3)n2C)c1 (centres unmarked)",
    "Experimental system": "GRK2 (Homo sapiens)",
    "Class label": "Fulfilled"
  },
  {
    "Molecule": "Cn1c(CNc2cccc(C(=O)NCc3ccc(CO)c(F)c3)c2)nnc1-c1ccncn1",
    "Experimental system": "GRK2 (Homo sapiens)",
    "Class label": "Not fulfilled"
  },
  {
    "Molecule": "Cn1c(CNc2cccc(C(=O)NCc3ncccc3-n3cccn3)c2)nnc1-c1ccncn1",
    "Experimental system": "GRK2 (Homo sapiens)",
    "Class label": "Not fulfilled"
  },
  {
    "Molecule": "COc1cccc([C@@H](C)NC(=O)c2ccnc(NCc3nnc(-c4ccncn4)n3C)c2)c1",
    "Experimental system": "GRK2 (Homo sapiens)",
    "Class label": "Fulfilled"
  },
  {
    "Molecule": "C[C@H](NC(=O)c1cccc(NCc2nnc(-c3ccncn3)n2C)c1)c1ccc(Cl)cn1",
    "Experimental system": "GRK2 (Homo sapiens)",
    "Class label": "Not fulfilled"
  },
  {
    "Molecule": "CCc1cnccc1CNC(=O)c1cccc(NCc2nnc(-c3ccncn3)n2[C@@H]2CCC[C@H](NC)C2)c1",
    "Experimental system": "GRK2 (Homo sapiens)",
    "Class label": "Not fulfilled"
  },
  {
    "Molecule": "Cc1nncc(CNC(=O)c2cccc(NCc3nnc(-c4ccncn4)n3C)c2)c1C",
    "Experimental system": "GRK2 (Homo sapiens)",
    "Class label": "Fulfilled"
  },
  {
    "Molecule": "Cn1c(CNc2cccc(C(=O)NCc3ccccc3C(F)(F)F)c2)nnc1-c1ccncc1F",
    "Experimental system": "GRK2 (Homo sapiens)",
    "Class label": "Fulfilled"
  },
  {
    "Molecule": "C[C@H](NC(=O)c1cccc(NCc2nnc(-c3ccncc3F)n2C)c1)c1ncccc1Cl",
    "Experimental system": "GRK2 (Homo sapiens)",
    "Class label": "Fulfilled"
  },
  {
    "Molecule": "COC1COc2ccccc2C1NC(=O)c1cccc(NCc2nnc(-c3ccncn3)n2C)c1 (centres unmarked)",
    "Experimental system": "GRK2 (Homo sapiens)",
    "Class label": "Fulfilled"
  },
  {
    "Molecule": "Cn1c(CNc2cccc(C(=O)NC3CS(=O)(=O)c4ccccc43)c2)nnc1-c1ccncn1 (centres unmarked)",
    "Experimental system": "GRK2 (Homo sapiens)",
    "Class label": "Fulfilled"
  },
  {
    "Molecule": "Cn1c(CNc2cccc(C(=O)NCc3cncc4c3CCC4)c2)nnc1-c1ccncn1",
    "Experimental system": "GRK2 (Homo sapiens)",
    "Class label": "Fulfilled"
  },
  {
    "Molecule": "COc1ncc(Br)cc1CNC(=O)c1cccc(NCc2nnc(-c3ccncn3)n2CCO)c1",
    "Experimental system": "GRK2 (Homo sapiens)",
    "Class label": "Fulfilled"
  }
]

All figures here come from patent US20230009608A1.
